Values were extracted from paper PMC3288125.

# Run Description: Serum pharmacokinetics and bioavailability of oral 3-AP
# Details: Oral Route, oral dose 100 mg, individual patients
Assay Readout: Cmax (nM)
Give bare numbers, in nM.

For the molecule NC(=S)NN=Cc1ncccc1N , what Cmax is on record? 2500

###

# Run Description: Serum pharmacokinetics of intravenous 3-AP
# Assay type: in vivo, human
# Details: human, serum, iv, 100 mg, MRT, Avg., 100 mg 2-hour infusion, mean
Assay Readout: MRT (h)
Numbers only, in h.

Given the entry NC(=S)NN=Cc1ncccc1N , report its measured MRT. 2.8

###

# Run Description: Serum pharmacokinetics and bioavailability of oral 3-AP
# Details: human, serum, po
Assay Readout: bioavailability (%)
Give bare numbers, in %.

Tell me the measured bioavailability of NC(=S)NN=Cc1ncccc1N , please. 67
